Where do the numbers come from? From patent US11524012B1.

# assay.notes: Toxicokinetics in rat toxicity study (IV infusion)
# Assay type: in vivo
# protocol.conditions: plasma; rat, 1 hour IV infusion, 5 mg/kg/dose, Female, Day 1 (first dose)
test.readout: Tmax (h)
Give your result in h as a bare value.

Input: // returns reported Tmax for input Cc1cnc(CNC(=O)c2c(=O)c3ccc(N4CCCN(C)CC4)nc3n3c2sc2ccccc23)cn1 [Compound I]
Output: 1

---

# Test system: various cancer cell lines
# assay.notes: Cell viability by Alamar Blue assay
# Type: cell-based
# protocol.conditions: Homo sapiens, Hs-578T, Hs 578.T, Breast
test.readout: pEC50
Remember, pEC50 is on a log scale: it is -log10 of the molar concentration.

Input: Missing value: pEC50, various cancer cell lines, entry Cc1cnc(CNC(=O)c2c(=O)c3ccc(N4CCCN(C)CC4)nc3n3c2sc2ccccc23)cn1 [Compound I] . Fill in?
Output: 5.78
